# Tested target: Epidermal growth factor receptor (Homo sapiens, UniProt P00533)
# Sequence (P00533 whole entry): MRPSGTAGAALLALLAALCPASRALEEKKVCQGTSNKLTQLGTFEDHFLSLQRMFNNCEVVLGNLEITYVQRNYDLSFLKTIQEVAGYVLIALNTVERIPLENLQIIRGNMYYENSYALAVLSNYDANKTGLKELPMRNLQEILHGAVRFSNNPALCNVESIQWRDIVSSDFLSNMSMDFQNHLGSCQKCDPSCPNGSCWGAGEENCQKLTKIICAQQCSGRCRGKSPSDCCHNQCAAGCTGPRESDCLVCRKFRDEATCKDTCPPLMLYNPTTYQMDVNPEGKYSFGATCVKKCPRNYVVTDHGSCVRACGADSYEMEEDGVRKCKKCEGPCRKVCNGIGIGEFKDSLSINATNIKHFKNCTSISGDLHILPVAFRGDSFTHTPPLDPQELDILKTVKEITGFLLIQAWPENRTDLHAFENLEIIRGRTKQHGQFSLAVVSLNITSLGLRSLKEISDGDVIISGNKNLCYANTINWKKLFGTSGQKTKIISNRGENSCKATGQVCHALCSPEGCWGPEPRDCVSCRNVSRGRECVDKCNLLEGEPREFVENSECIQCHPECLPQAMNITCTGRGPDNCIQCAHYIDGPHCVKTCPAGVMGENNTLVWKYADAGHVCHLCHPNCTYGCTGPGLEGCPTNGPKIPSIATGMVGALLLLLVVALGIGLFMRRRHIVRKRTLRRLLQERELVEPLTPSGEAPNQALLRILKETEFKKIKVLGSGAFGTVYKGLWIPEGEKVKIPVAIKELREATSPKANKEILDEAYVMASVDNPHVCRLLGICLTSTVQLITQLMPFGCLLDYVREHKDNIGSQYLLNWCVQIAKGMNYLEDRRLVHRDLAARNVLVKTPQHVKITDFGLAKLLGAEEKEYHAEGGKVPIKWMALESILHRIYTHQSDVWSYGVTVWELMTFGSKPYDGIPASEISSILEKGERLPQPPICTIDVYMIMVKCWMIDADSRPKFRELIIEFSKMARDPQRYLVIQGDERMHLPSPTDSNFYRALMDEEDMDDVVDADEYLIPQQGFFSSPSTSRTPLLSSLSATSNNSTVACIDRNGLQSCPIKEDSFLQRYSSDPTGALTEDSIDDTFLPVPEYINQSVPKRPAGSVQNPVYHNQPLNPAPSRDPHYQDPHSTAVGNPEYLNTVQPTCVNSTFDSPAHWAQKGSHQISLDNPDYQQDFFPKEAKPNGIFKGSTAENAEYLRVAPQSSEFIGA
Measured attribute: IC50 (nM)

>>> print(df.to_string())
                              smiles_string  measured_attribute  observed_measurement
0  C=CC(=O)Nc1cc2c(Nc3ccc(F)c(Br)c3)ncnc2cc1OCCCN1CCOCC1                IC50                   1.8
1  C=CC(=O)Nc1nc2c(Nc3ccc(F)c(Cl)c3)ncnc2cc1OCCCN1CCN(C)CC1                IC50                   6.6
2  C=CC(=O)Nc1cc2c(Nc3cccc(C)c3)ncnc2cc1OCCCN1CCN(C)CC1                IC50                     2
3  C=CC(=O)Nc1nc2c(Nc3ccc(F)c(Cl)c3)ncnc2cc1CCCCN1CCOCC1                IC50                   2.7
4  C=CC(=O)Nc1cc2c(Nc3cccc(Br)c3)ncnc2cc1OCCCN1CCN(C)CC1                IC50                   1.7
